- System: MIA PaCa-2
- run description: Cytotoxicity against human MIAPaCa2 cells
- Assay type: functional, cell-based
Flag rule - IC50 less than 30 µM flags 1; the remaining entries get 0.

O=C(N/N=C\c1cn(Cc2ccc(Cl)cc2)c2cc(F)ccc12)c1c[nH]c2ccccc12 ... 1
COc1ccc2c(c1)c(/C=N\NC(=O)c1cn(C)c3ccccc13)cn2Cc1ccc(Cl)cc1 ... 0
COc1ccc2c(c1)c(/C=N\NC(=O)c1c[nH]c3ccccc13)cn2Cc1ccc(Cl)cc1 ... 1
COc1ccc(Cn2cc(/C=N\NC(=O)c3c[nH]c4ccccc34)c3ccccc32)cc1 ... 0
O=C(N/N=C\c1cn(Cc2ccc(Cl)cc2)c2cc(F)ccc12)c1c[nH]c2ccc(Br)cc12 ... 1

### Prompt Quick check: IC50 of `COc1ccc(Cn2cc(/C=N\NC(=O)c3cn(C)c4ccccc34)c3ccc(F)cc32)cc1` under 30 µM?
### Response 0

### Prompt Quick check: IC50 of `Cn1cc(C(=O)N/N=C\c2cn(Cc3ccc(Cl)cc3)c3cc(F)ccc23)c2ccccc21` under 30 µM?
### Response 0

### Prompt Quick check: IC50 of `COc1ccc2c(c1)c(/C=N\NC(=O)c1c[nH]c3ccc(Br)cc13)cn2Cc1ccc(Cl)cc1` under 30 µM?
### Response 1

### Prompt Quick check: IC50 of `COc1ccc(Cn2cc(/C=N\NC(=O)c3c[nH]c4ccccc34)c3ccc(F)cc32)cc1` under 30 µM?
### Response 0

### Prompt Quick check: IC50 of `COc1ccc(Cn2cc(/C=N\NC(=O)c3c[nH]c4ccc(Br)cc34)c3cc(OC)ccc32)cc1` under 30 µM?
### Response 0

### Prompt Quick check: IC50 of COc1cccc2c1C(=O)c1c(O)c3c(c(O)c1C2=O)C[C@@](O)(C(=O)CO)C[C@@H]3O[C@H]1C[C@H](N)[C@H](O)[C@H](C)O1 [DOXORUBICIN] under 30 µM?
### Response 1

### Prompt Quick check: IC50 of `COc1ccc(Cn2cc(/C=N\NC(=O)c3c[nH]c4ccc(Br)cc34)c3ccc(F)cc32)cc1` under 30 µM?
### Response 0

### Prompt Quick check: IC50 of `O=C(N/N=C\c1cn(Cc2ccc(Cl)cc2)c2ccc(Br)cc12)c1c[nH]c2ccccc12` under 30 µM?
### Response 1

### Prompt Quick check: IC50 of `O=C(N/N=C\c1cn(Cc2ccc(Cl)cc2)c2ccccc12)c1c[nH]c2ccccc12` under 30 µM?
### Response 0
